# System: HCT-15 colon
# TEST NAME: NCI tumour cell line growth inhibition, 48 h; in the data active means GI50 below about 0.43 µM; inactive means the rest
Possible outcomes: t (active), f (inactive)

• CCCCCCCCCCCCOC1C(CNC(=O)C2OC3OC(C)(C)OC3C2NC(=O)CN2CCCCCC2)OC2OC(C)(C)OC21 (stereo unspecified) = f
• COc1ccc(-c2ccc(/C=N/n3c(C)nn(CN4CCN(C)CC4)c3=S)o2)c([N+](=O)[O-])c1 = f
• CS(=O)(=O)CCNCc1ccc(-c2ccc3ncnc(Nc4ccc(OCc5ccccc5)c(Cl)c4)c3c2)o1 = f
• Cc1nc2n(c(=O)c1CCN1CCC(c3noc4cc(F)ccc34)CC1)CCCC2 = f
• COc1ccc(-c2cc(-c3cc(OC)c(OC)c(OC)c3)c(C#N)c(N3CCOCC3)n2)cc1O = f
• CCOC(=O)c1cc2c(n1Cc1ccccc1)-c1oncc1CC2 = f
• COc1ccc(Cn2cc3c(c2-c2cc(OC)c(OC)c(OC)c2)CCc2cnoc2-3)cc1[N+](=O)[O-] = f
• CC1=C[S+](c2ccccc2)c2cccc3cc4ccccc4c1c23 (stereo unspecified) = t
• Nc1nc(N)c2nc(CNc3ccc(C(=O)NC(CCCNC(=O)c4ccccc4C(=O)O)C(=O)O)cc3)cnc2n1 (stereo unspecified) = t
• CN(CCCl)c1ccc(/C=C/C2=[N+](C)c3ccccc3C2(C)C)cc1 = f
• CCC[CH2][Sn]([CH2]CCC)([O]C(=O)C1CCC(=O)N1)[O]C(=O)C1CCC(=O)N1 (stereo unspecified) = t
• CCC1CCc2nc3sc(C(=O)Nc4ccccc4C)c(N)c3cc2C1 (stereo unspecified) = t
• O=C([O-])c1ccc(C(=O)[O-])cc1.O=C([O-])c1ccc(C(=O)[O-])cc1.[Mo+2].[Mo+2] = f
• O=C1/C(=C/c2ccccc2)CN(C(=O)OCc2ccccc2)C/C1=C\c1ccccc1 = f
• O=C(CCCCCCSc1nc(-c2ccc(Cl)cc2)cc(-c2ccc(Cl)cc2)n1)NO = f
• CCN1C(=O)N(c2ccccc2)C2NN=c3s/c(=C4\C(=O)N(C(C)C)c5ccccc54)c(=O)n3C21 (stereo unspecified) = f

---

# Tested on: SN12C renal
# TEST NAME: NCI tumour cell line growth inhibition, 48 h; in the data active = GI50 below about 0.43 µM; inactive = the rest
Possible outcomes: active, inactive

- Nc1c(C(=O)Nc2ccccc2F)sc2nc3c(cc12)C(=O)CCC3: inactive
- Nc1nc(N)c2nc(CNc3ccc(C(=O)NC(CCCNC(=O)c4ccccc4C(=O)O)C(=O)O)cc3)cnc2n1 (configuration not stated): active
- O=C1CCc2c(sc3[nH]c(=S)n(Cc4ccccc4)c(=O)c23)C1: inactive
- CCC(C(=O)[O-])C(=O)[O-].CCC(C(=O)[O-])C(=O)[O-].N.N.NCCCCCCN.[Pt+4].[Pt+4]: inactive
- Nc1nnc(Cn2c(-c3ccccc3)nc3ccc(Br)cc3c2=O)s1: inactive
- CCCCCCCCCCCCOC1C(CNC(=O)C2OC3OC(C)(C)OC3C2NC(=O)CN2CCCCCC2)OC2OC(C)(C)OC21 (configuration not stated): inactive
- COc1ccc2c(c1)[n+](=O)c(C(=O)/C=C/c1cc(OC)c(OC)c(OC)c1)c(C)n2[O-]: inactive
- COc1cnc2c(c1)C(=O)c1c-2n(CCCN2CCCC2)c(=O)c2cc(F)ccc12: active
- Cc1nc(N)sc1C(=O)Nc1cc(C(=O)NCCCN(C)C)n(C)c1: inactive
- CCOC(=O)c1cc2c(n1Cc1ccccc1)-c1oncc1CC2: inactive
- C#Cc1cccc(Nc2nc3ccc([N+](=O)[O-])cc3nc2Nc2cccc(C#C)c2)c1: active
- COc1ccc(-c2cc(-c3cc(OC)c(OC)c(OC)c3)c(C#N)c(N3CCOCC3)n2)cc1O: inactive
- O=C(c1ccccc1)c1nc2ccc(C(F)(F)F)cc2[n+]([O-])c1C(F)(F)F: inactive
- CN(C[C@@H]1COCCO1)S(=O)(=O)Nc1ccc2ccc3ncc(-c4cnn(C)c4)cc3c(=O)c2c1: inactive
- C[C@H]1C(Oc2ccc(O)cc2)OC2OC3(C)CCC4[C@H](C)CCC1C24OO3 (some centres not stated): inactive
- CC(=O)[O][Hg][c]1ccccc1: active
- N#Cc1ccc(C(c2ccc(C#N)cc2)n2cncn2)cc1: inactive

---

Recorded TGI for the following compounds
# Tested on: NCI-H23 lung
# TEST NAME: NCI tumour cell line growth inhibition, 48 h
OBSERVED PROPERTY: TGI (µM)

* C/C(Cc1ccc(Cl)cc1)=C(/c1ccc(Cl)cc1)c1ccc(OCCN(C)C)cc1 | 9.14
* CN(CCCNC(=O)c1nn(-c2ccc(Cl)cc2Cl)c2c1ccc1ccccc12)CCCNC(=O)c1nn(-c2ccc(Cl)cc2Cl)c2c1ccc1ccccc12 | 3.26
* COc1cccc(C2C3=C(COC3=O)Oc3cc4c(cc32)OCO4)c1 (centres undefined) | 24.9
* C=CC[C@@]1(C)CCCCCCCCC[C@@](C)(CC=C)C1=O | 63.9

---

# System: HCT-15 colon
# TEST NAME: NCI tumour cell line growth inhibition, 48 h
OBSERVED PROPERTY: TGI (µM)

• CC(=O)OC1CC[C@]2(C)C3CC[C@@]4(C)C(CCC4[C@H](C)CCCC(C)C)[C@@H]3CCC2(Br)C1 (stereo partly drawn) = 33.2
• CSc1ccc(/C=C/c2ccnc3ccccc23)cc1 = 25.7
• CCC(C(=O)[O-])C(=O)[O-].CCC(C(=O)[O-])C(=O)[O-].N.N.NCCCCCCN.[Pt+4].[Pt+4] = 13.8
• COc1cc(O)c2c(=O)cc(C3(O)C=CC(=O)C=C3)oc2c1 = 1.11

---

Recorded TGI for the following molecules
# Tested on: NCI-H460 lung
# TEST NAME: NCI tumour cell line growth inhibition, 48 h
OBSERVED PROPERTY: TGI

• COc1ccc(-c2ccc(/C=N/n3c(C)nn(CN4CCN(C)CC4)c3=S)o2)c([N+](=O)[O-])c1 = > 100 µM
• CCc1nc(N)nc(N)c1-c1ccc(NCCc2ccccc2)c([N+](=O)[O-])c1 = > 53.9 µM
• Cn1c(=S)c2[nH]c(SCCN3CCCC3)nc2n(C)c1=O = > 100 µM
• C=C1CN(Cc2ccccc2)[C@@H]2CCCCC[C@H](C#N)[C@H]12 = > 100 µM
• C/C(Cc1ccc(Cl)cc1)=C(/c1ccc(Cl)cc1)c1ccc(OCCN(C)C)cc1 = 4.49 µM
• CC(=O)[O][Hg][c]1ccccc1 = 3.82 µM
• Nc1nc(N)c2nc(CNc3ccc(C(=O)NC(CCCNC(=O)c4ccccc4C(=O)O)C(=O)O)cc3)cnc2n1 (stereo unspecified) = > 100 µM
• C#CCOc1cccc(Nc2ncnc3ccc(NC(=O)CCl)cc23)c1 = 3.08 µM
• C=C(Cl)C(=C)CCC(Cl)C(C)C (stereo unspecified) = > 100 µM
• Cc1c2c(n(CCN(C)C)c1C)NN=C(C#N)S2(=O)=O = > 100 µM
• O=C(Nc1ccccc1F)c1cc2ccc(O)cc2oc1=Nc1cccc(C(F)(F)F)c1 = > 100 µM

---

# Test system: SK-MEL-28 melanoma
# TEST NAME: NCI tumour cell line growth inhibition, 48 h
Recorded TGI for the following compounds
OBSERVED PROPERTY: TGI

• Cc1cc(C)nc(SC2=C(Nc3cccc(Cl)c3C)C(=O)N(Cc3ccccc3)C2=O)n1 = > 160 µM
• Cc1c2c(n(CCN(C)C)c1C)NN=C(C#N)S2(=O)=O = > 100 µM
• COc1cc2cc(C(=O)N3CC(CCl)c4ccccc43)[nH]c2c(OC)c1OC (stereo not given) = > 100 µM
• COc1cc2c(cc1OC)C(N)CC2=O (stereo not given) = > 100 µM
• COc1ccc(Cn2cc3c(c2-c2cc(OC)c(OC)c(OC)c2)CCc2cnoc2-3)cc1[N+](=O)[O-] = > 100 µM
• O=C=NCCCCCCN1C(=O)N2C(c3ccccc3)N(CCCCCCN=C=O)C(=O)N2C1c1ccccc1 (stereo not given) = > 100 µM
• COc1ccc(/C(=N/NC(N)=O)C(c2ccc(OC)cc2)C2C(=O)Oc3ccccc32)cc1 (stereo not given) = > 100 µM
• C=CCN(C)CN(C)c1nc(N(C)C)nc(N(C)C)n1 = > 100 µM
• Cc1ccc(/C=C/C(=O)c2cc(CN(C)C)c(O)c(CN(C)C)c2)cc1 = 33.6 µM
• Nc1nc(N)c2nc(CNc3ccc(C(=O)NC(CCCNC(=O)c4ccccc4C(=O)O)C(=O)O)cc3)cnc2n1 (stereo not given) = > 100 µM

---

# System: SK-MEL-5 melanoma
# TEST NAME: NCI tumour cell line growth inhibition, 48 h
Recorded TGI for the following compounds
OBSERVED PROPERTY: TGI (µM)

• CCOC(=O)Nc1ccc(-c2nc(-c3cccc(OC)c3)c(-c3ccnc(Br)c3)[nH]2)cc1 = 3.43
• O=C(OCc1ccc2c(Cl)cc(Cl)c(O)c2n1)c1cc2ccccc2[nH]1 = 2.63
• CCC(C(=O)[O-])C(=O)[O-].CCC(C(=O)[O-])C(=O)[O-].N.N.NCCCCCCN.[Pt+4].[Pt+4] = 9.46
• C#CCOc1cccc(Nc2ncnc3ccc(NC(=O)CCl)cc23)c1 = 8.9
• CC(=O)[O-].O=C([CH-]C(=O)c1ccccc1)c1ccccc1.O=C([CH-]C(=O)c1ccccc1)c1ccccc1.[Y+3] = 14.2

Every entry's value here was drawn from PubChem BioAssay (NCI).
